procedureDetails: Agilent ZORBAX 300 SB-C18, 150 × 1 mm, 3.5 µm; A: water + 0.01% heptafluorobutyric acid; B: acetonitrile + 0.01% heptafluorobutyric acid; gradient (min/%B) 0/0 100/90
studyConditions: stereoisomer not certain
outcomeMeasure: LC retention time (min)

CC1CCC(c2cn(C)c3ccccc23)C(=O)C1 (stereo not given)	15.7

1. Nc1cc(=O)[nH]c(=S)n1C1CCCC1
2. COc1ccc(OCc2nc3ccccc3nc2C)cc1
[ask] Consider 1 and 2 . Which of these has its LC retention time at a higher number? // output: label of the selected item
[reply] 2
(2: 14.1 min, 1: 8.94 min)

a. CCN(CC)c1nc(N)nc(N2N=CC=NN2)n1
b. O=C(c1ccc(CN2CCc3ccccc3C2)cc1)N(Cc1ccccc1)Cc1ccccc1
[ask] I'm curious whether a or b has the smaller LC retention time number. Which is it? // output: label of the selected item
[reply] a
(a: 8.12 min, b: 12.5 min)

* * *

procedureDetails: Agilent ZORBAX 300 SB-C18, 150 × 1 mm, 3.5 µm; A: water + 0.01% heptafluorobutyric acid; B: acetonitrile + 0.01% heptafluorobutyric acid; gradient (min/%B) 0/0 100/90
studyConditions: stereoisomer not certain
outcomeMeasure: LC retention time (min)

Here are 2 molecules together with their reported answers.
O=C1CCNC2CCCCC12 (stereo not drawn)	6.79
NC(=O)C(N)c1ccccc1 (stereo not drawn)	6.56

I. Nc1ccc2c(c1)COc1ccccc1O2
II. CCNCCN(CC)CC
[ask] Consider I and II . Which of these has its LC retention time at a higher number? // output: label of the selected item
[reply] I
(I: 10.5 min, II: 6.96 min)

* * *

procedureDetails: Agilent ZORBAX 300 SB-C18, 150 × 1 mm, 3.5 µm; A: water + 0.01% heptafluorobutyric acid; B: acetonitrile + 0.01% heptafluorobutyric acid; gradient (min/%B) 0/0 100/90
studyConditions: stereoisomer not certain
outcomeMeasure: LC retention time (min)

Here are 3 molecules together with their reported answers.
CNCC1COCCO1 (stereo not given)	5.78
CN1CCC2(CC1)NC(=O)N(c1ccccc1)N2	7.95
CCCCOC(=O)CCc1n[nH]c(=O)[nH]c1=O	9.57

P. NCC1CCNCC1
Q. CCc1ccc(C=NNC(=O)C[n+]2ccccc2)cc1
[ask] Consider P and Q . Which of these has its LC retention time at a higher number? // output: label of the selected item
[reply] Q
(Q: 9.72 min, P: 6.49 min)

* * *

procedureDetails: Agilent ZORBAX 300 SB-C18, 150 × 1 mm, 3.5 µm; A: water + 0.01% heptafluorobutyric acid; B: acetonitrile + 0.01% heptafluorobutyric acid; gradient (min/%B) 0/0 100/90
studyConditions: stereoisomer not certain
outcomeMeasure: LC retention time (min)

COC(=O)c1[nH]c2ccccc2c1C(=O)OC	11.3
CN1C2CC(OC(=O)C(CO)c3ccccc3)CC1C1OC12 (stereo not given)	8.47
C=CCC1(Nc2ccccc2)CCCCC1	11.3

a. c1coc(C2=NCCN2)c1
b. Cc1c(C(=O)Nc2ccccn2)c(C(C)N=Nc2ccccc2)cc(=O)n1-c1ccccn1 (stereo not given)
[ask] I'm curious whether a or b has the smaller LC retention time number. Which is it? // output: label of the selected item
[reply] a
(a: 6.73 min, b: 11.7 min)

I. O=C1CCCC(O)=C1C1(O)C(=O)c2ccccc2C1=O
II. CC(C)n1c2ccccc2c2ccccc21
III. O=c1[nH]c(N=NCc2c[nH]c3ccccc23)nnc1-c1ccccc1
[ask] Please produce an ascending ranking of these compounds based on LC retention time. Please reply with the labels ordered as requested. Many thanks.
[reply] I, III, II

a. Nc1cccc2cc[nH]c12
b. C#CC(C)(C)NC(=O)CCCCCN1C(=O)c2ccccc2C1=O
[ask] I'm curious whether a or b has the smaller LC retention time number. Which is it? // output: label of the selected item
[reply] a
